# measured target: UniProtKB Q9HBX9
# Sequence (Q9HBX9 1-757): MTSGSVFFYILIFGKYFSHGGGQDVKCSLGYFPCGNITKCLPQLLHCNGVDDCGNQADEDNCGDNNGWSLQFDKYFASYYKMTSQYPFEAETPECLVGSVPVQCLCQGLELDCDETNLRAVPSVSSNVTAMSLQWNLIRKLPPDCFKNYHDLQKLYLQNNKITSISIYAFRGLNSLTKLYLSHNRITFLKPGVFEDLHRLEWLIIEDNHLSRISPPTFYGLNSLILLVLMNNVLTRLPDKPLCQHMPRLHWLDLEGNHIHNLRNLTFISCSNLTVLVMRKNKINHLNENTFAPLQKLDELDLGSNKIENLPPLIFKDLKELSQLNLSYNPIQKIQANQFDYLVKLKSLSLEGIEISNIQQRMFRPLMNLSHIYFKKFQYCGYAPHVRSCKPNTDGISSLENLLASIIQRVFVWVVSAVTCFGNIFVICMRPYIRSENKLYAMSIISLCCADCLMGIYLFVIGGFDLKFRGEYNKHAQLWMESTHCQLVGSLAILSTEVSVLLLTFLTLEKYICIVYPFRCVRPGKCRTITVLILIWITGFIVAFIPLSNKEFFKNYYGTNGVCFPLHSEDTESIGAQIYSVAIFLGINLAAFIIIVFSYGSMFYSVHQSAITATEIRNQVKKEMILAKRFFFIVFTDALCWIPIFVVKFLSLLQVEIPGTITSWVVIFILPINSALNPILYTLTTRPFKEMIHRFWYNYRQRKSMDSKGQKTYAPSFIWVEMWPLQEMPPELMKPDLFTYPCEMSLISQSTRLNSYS
# measurement notes: hRXFP1 HEK293 cAMP assay (HTRF)
# test parameters: HEK293 cells stably expressing human RXFP1, 30 min at room temperature
pEC50: −log10 of the molar value.
reported endpoint: pEC50

COc1ccc(C(O)C(F)(F)F)cc1C(=O)NC1C2CCC(/C2=C/C(F)(F)F)[C@@H]1C(=O)Nc1ccc(F)c(C(F)(F)F)c1 (single isomer, unassigned) [Example 5] ... 6.00
COc1ccc(C(=O)NCC(C)(C)O)cc1C(=O)N[C@H]1[C@@H](C(=O)Nc2ccc(F)c(C(F)(F)F)c2)[C@H]2CC[C@@H]1/C2=C\C1CC1 ... 7.27
COc1ccc(S(=O)(=O)N2CCN(CCCO)CC2)cc1C(=O)N[C@H]1[C@@H](C(=O)Nc2ccc(F)c(C(F)(F)F)c2)[C@H]2CC[C@@H]1/C2=C\C(F)(F)F ... 6.26
COc1ccc(C2CC2C(=O)O)cc1C(=O)N[C@@H]1C2CCC(/C2=C/C(F)(F)F)[C@@H]1C(=O)Nc1ccc(F)c(C(F)(F)F)c1 (single isomer, unassigned) [Example 63] ... 5.35
COC/C=C/c1ccc(OC)c(C(=O)N[C@@H]2C3CCC(C3=C(C)C)[C@@H]2C(=O)Nc2ccc(F)c(C(F)(F)F)c2)c1 (stereo partly shown) ... 6.74
CCOC(=O)C1CCC(c2ccc(OC)c(C(=O)NC3C4CCC(/C4=C/C(F)(F)F)[C@@H]3C(=O)Nc3ccc(F)c(C(F)(F)F)c3)c2)CC1 (stereo partly shown) ... 6.69
COc1ccc(C(=O)N2CCC(O)CC2)cc1C(=O)N[C@H]1[C@@H](C(=O)Nc2ccc(F)c(C(F)(F)F)c2)[C@H]2CC[C@@H]1/C2=C\C1CC1 ... 7.59
COc1ccc(C)cc1C(=O)N[C@@H]1C2CCC(C2=C(C)C)[C@@H]1C(=O)Nc1ccc(F)c(C(F)(F)F)c1 (stereo partly shown) ... 5.70
COc1ccc(CN2C(=O)NC3(CCCC3)C2=O)cc1C(=O)N[C@@H]1C2CCC(/C2=C/C2CC2)[C@@H]1C(=O)Nc1ccc(F)c(C(F)(F)F)c1 (stereo partly shown) ... 6.48
COc1ccc(C2CCC(C(F)(F)F)CC2)cc1C(=O)NC1C2CCC(/C2=C/C(F)(F)F)[C@@H]1C(=O)Nc1ccc(F)c(C(F)(F)F)c1 (stereo partly shown) ... 6.53

[1] COc1ccc(CCCO)cc1C(=O)NC1C2CCC(/C2=C/C2CCCOC2)[C@@H]1C(=O)Nc1ccc(F)c(C(F)(F)F)c1 (single isomer, unassigned) [Example 171]
[2] COc1ccc(C2CCCCC2O)cc1C(=O)N[C@@H]1C2CCC(/C2=C/C(F)(F)F)[C@@H]1C(=O)Nc1ccc(F)c(C(F)(F)F)c1 (single isomer, unassigned) [Example 57]
[3] COc1ccc(/C=C/C(=O)N2CC(O)C2)cc1C(=O)N[C@H]1[C@@H](C(=O)Nc2ccc(F)c(C(F)(F)F)c2)[C@H]2CC[C@@H]1/C2=C\C(F)(F)F
[ask] Sort these compounds on pEC50 so the largest reading comes first. Sort the labels as requested; that list is your answer.
[reply] 3, 1, 2
(3: 7.18, 1: 6.40, 2: 5.84)

[1] COc1ccc(CN2C(=O)CNC2=O)cc1C(=O)N[C@@H]1C2CCC(/C2=C/C2CC2)[C@@H]1C(=O)Nc1ccc(F)c(C(F)(F)F)c1 (stereo partly shown)
[2] COc1ccc(CCC(=O)NC2CCC2)cc1C(=O)NC1C2CCC(/C2=C/C(F)(F)F)[C@@H]1C(=O)Nc1ccc(F)c(C(F)(F)F)c1 (stereo partly shown)
[3] COc1ccc(CCC(=O)O)cc1C(=O)N[C@@H]1C2CCC(/C2=C/C(F)(F)F)[C@@H]1C(=O)Nc1ccc(F)c(C(F)(F)F)c1 (stereo partly shown)
[4] COc1ccc(CCC(C)(C)O)cc1C(=O)NC1C2CCC(/C2=C/CC2CCC2)[C@@H]1C(=O)Nc1ccc(F)c(C(F)(F)F)c1 (stereo partly shown)
[ask] Sort these compounds on pEC50 so the largest reading comes first. Sort the labels as requested; that list is your answer.
[reply] 4, 3, 1, 2
